- test_method_notes: in vivo
- test_parameters: male, C57, mouse, po, 5 mg/kg
readout_kind: Tmax

-- ask Any idea what Tmax was measured for N#CC[C@H](C1CCCC1)n1cc(-c2ncnc3[nH]ccc23)cn1 [Ruxolitinib, reference compound] ?
-- reply 7.8 min

----------
- test_method_notes: in vivo
- test_parameters: male, C57, mouse, po, 5 mg/kg
readout_kind: half-life (min)
The reply should be a number in min, with the unit left off.

-- ask Any idea what half-life was measured for N#CC[C@H](C1CCCC1)n1cc(-c2ncnc3[nH]ccc23)cn1 [Ruxolitinib, reference compound] ?
-- reply 30

----------
# Lookup of reported AUC(0-t) keyed by entry
- test_method_notes: in vivo
- test_parameters: male, C57, mouse, po, 10 mg/kg
The reply should be a number in µg·h/mL, with the unit left off.

N#CC[C@H](CCC(F)(F)F)n1cc(-c2ncnc3[nH]ccc23)cn1 [Compound 6-2]: 4.76

-- ask Any idea what AUC(0-t) was measured for N#CCC(C1CC(F)(F)C1)n1cc(-c2ncnc3[nH]ccc23)cn1 (stereo not shown) [Compound 7] ?
-- reply 1.66

-- ask Note, next up: N#CC[C@@H](CCC(F)(F)F)n1cc(-c2ncnc3[nH]ccc23)cn1 [Compound 6-1]
-- reply 9.23

-- ask Note, next up: N#CCC(C1CCC(C(F)(F)F)CC1)n1cc(-c2ncnc3[nH]ccc23)cn1 (stereo not shown) [Compound 5]
-- reply 1.98
